EXPERIMENTAL SYSTEM: GlcNAc(b1-2)Man(a1-3)[GlcNAc(b1-2)Man(a1-6)]Man(b1-4)GlcNAc(b1-4)[Fuc(a1-6)]GlcNAc
ASSAY TEXT: glycan array binding signal (z-score within array); higher = stronger binding
REPORTED CONDITIONS: glycan notation: IUPAC condensed, linker removed
Shown is part of a subset that was picked to be rich in the strongest signals.
PARAMETER MEASURED: glycan array binding signal (z-score)

• LSectin (Mus musculus), Q8BNX1 (protein) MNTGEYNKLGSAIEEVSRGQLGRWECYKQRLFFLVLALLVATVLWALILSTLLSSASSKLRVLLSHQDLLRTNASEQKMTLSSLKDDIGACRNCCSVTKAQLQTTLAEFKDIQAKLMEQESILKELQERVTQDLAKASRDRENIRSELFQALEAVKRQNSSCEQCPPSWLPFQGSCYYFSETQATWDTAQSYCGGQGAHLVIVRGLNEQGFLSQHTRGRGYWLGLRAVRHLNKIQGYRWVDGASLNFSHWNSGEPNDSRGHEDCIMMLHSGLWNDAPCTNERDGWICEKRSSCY = 5.47
• Mermaid2 (Stilbonema majum) (protein) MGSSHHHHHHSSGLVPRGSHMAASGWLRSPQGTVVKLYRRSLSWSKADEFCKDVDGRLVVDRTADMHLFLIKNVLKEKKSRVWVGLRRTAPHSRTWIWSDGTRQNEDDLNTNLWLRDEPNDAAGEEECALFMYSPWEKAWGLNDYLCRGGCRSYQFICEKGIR = 0.316
• EUL D1A (Oryza sativa) (protein) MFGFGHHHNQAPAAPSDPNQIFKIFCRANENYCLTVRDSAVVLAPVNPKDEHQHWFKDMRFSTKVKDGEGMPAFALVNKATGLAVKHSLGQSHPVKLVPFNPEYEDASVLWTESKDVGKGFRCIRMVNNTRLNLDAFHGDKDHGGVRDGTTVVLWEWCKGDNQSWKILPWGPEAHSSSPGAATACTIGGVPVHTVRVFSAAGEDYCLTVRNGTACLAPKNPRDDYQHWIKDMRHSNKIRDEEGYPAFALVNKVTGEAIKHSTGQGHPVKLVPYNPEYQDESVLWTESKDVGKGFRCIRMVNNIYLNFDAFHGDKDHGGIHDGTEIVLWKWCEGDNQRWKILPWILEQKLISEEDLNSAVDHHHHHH = 2.33
• SEX4 (Arabidopsis thaliana), Q944A8 (protein) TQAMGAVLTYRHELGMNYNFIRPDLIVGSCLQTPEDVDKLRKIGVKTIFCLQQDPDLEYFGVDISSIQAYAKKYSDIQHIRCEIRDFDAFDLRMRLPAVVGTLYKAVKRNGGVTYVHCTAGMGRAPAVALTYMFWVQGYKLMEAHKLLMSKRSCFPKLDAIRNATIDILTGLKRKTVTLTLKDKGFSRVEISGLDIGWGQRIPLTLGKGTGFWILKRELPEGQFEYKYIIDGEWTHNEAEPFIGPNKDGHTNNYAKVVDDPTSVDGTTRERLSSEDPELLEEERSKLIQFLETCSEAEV = 3.1
